# Test system: rat platelet-rich plasma
# test summary: In vitro antiplatelet activity: platelet aggregation in rat platelet-rich plasma (turbidimetric method of Born and Cross)
# Format: cell-based
# condition summary: compounds and ASA at 150 μM; rat PRP; aggregation induced by arachidonic acid 100 μM; n = 3
endpoint name: Platelet Inhibition (%) Arachidonic Acid (100 μM)
Numbers only; they are read as %.

Answered cases to consult:
                                   compound  experimental_value
0  CC(=O)Oc1ccccc1C(=O)Oc1cccc(C(=O)N/N=C/c2ccc3c(c2)no[n+]3[O-])c1 [Compound 14a]                76.9
1  CC(=O)Oc1ccccc1C(=O)O [ASA, acetylsalicylic acid, reference compound]                72.2
2  CC(=O)Oc1ccccc1C(=O)Oc1ccc(C(=O)N/N=C/c2ccc3c(c2)no[n+]3[O-])cc1 [Compound 14b]                79.1

API: the following record is the query input.
Summary for this compound, O=C(NN=Cc1ccc2c(c1)no[n+]2[O-])c1ccc(O)cc1 [Compound 13b] : Platelet Inhibition (%) Arachidonic Acid (100 μM) is 57.8
